All figures here come from ChEMBL document CHEMBL1142052.

# measured_target: Thromboxane A2 receptor (Homo sapiens)
# Sequence (P21731 whole entry): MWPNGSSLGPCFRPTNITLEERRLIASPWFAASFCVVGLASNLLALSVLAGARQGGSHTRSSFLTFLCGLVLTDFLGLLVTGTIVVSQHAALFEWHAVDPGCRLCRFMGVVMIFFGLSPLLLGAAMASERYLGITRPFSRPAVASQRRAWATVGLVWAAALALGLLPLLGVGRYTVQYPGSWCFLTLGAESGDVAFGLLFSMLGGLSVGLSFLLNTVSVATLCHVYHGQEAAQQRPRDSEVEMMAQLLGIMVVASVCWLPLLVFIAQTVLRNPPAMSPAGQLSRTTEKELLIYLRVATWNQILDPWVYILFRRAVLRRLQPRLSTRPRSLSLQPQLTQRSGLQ
# assay_notes: Inhibitory activity for binding of PGD-2 to hTP in hTP binding assay using HEK293 cell membranes
readout: Ki

response.value for O=C(O)Cn1c2c(c3cc(NS(=O)(=O)c4ccc(F)cc4)ccc31)CCCC2 (field: Ki) = > 20 µM

###

# measured_target: Prostaglandin D2 receptor 2 (Homo sapiens, UniProt Q9Y5Y4)
# assay_notes: Inhibitory activity for binding of PGD-2 to CRTH-2 in hCRTH-2 binding assay using HEK293 cell membranes
Listed molecules paired with reported pKi
Would you please state pKi, meaning minus log10 of the concentration in mol/L, as a bare number?

>>> measured_number("O=C(O)c1ccccc1-n1c2c(c3cc(NS(=O)(=O)c4ccc(F)cc4)ccc31)CCCC2")
4.48
>>> measured_number("O=C(O)Cn1c2c(c3cc(NS(=O)(=O)c4ccc(F)cc4)ccc31)CCCC2")
7.52
>>> measured_number("O=C(O)CCn1c2c(c3cc(NS(=O)(=O)c4ccc(F)c(F)c4)ccc31)CCCC2")
5.38
>>> measured_number("O=C(O)CCn1c2c(c3cc(NS(=O)(=O)c4ccccc4F)ccc31)CCCC2")
6.01
>>> measured_number("CC(C(=O)O)n1c2c(c3cc(NS(=O)(=O)c4ccc(F)cc4)ccc31)CCCC2 (stereo not given)")
5.36

response.value for O=C(O)/C=C\n1c2c(c3cc(NS(=O)(=O)c4ccc(F)cc4)ccc31)CCCC2 (field: pKi) = 4.72

response.value for O=C(O)CCn1c2c(c3cc(NS(=O)(=O)c4ccc(F)cc4F)ccc31)CCCC2 (field: pKi) = 5.44

response.value for O=C(O)CCn1c2c(c3cc(NS(=O)(=O)c4ccc(F)cc4)ccc31)CCCC2 (field: pKi) = 6.60

###

# measured_target: Prostaglandin D2 receptor 2 (Homo sapiens)
# assay_notes: Inhibitory activity for binding of PGD-2 to CRTH-2 in hCRTH-2 binding assay using HEK293 cell membranes
readout: pKi
Would you please state pKi, meaning minus log10 of the concentration in mol/L, as a bare number?

>>> measured_number("O=C(O)c1cccc(-n2c3c(c4cc(NS(=O)(=O)c5ccc(F)cc5)ccc42)CCCC3)c1")
4.57
>>> measured_number("O=C(O)CCn1c2c(c3cc(NS(=O)(=O)c4ccccc4)ccc31)CCCC2")
5.92
>>> measured_number("O=S(=O)(O)CCn1c2c(c3cc(NS(=O)(=O)c4ccc(F)cc4)ccc31)CCCC2")
5.62
>>> measured_number("Cc1ccc(S(=O)(=O)Nc2ccc3c(c2)c2c(n3CCC(=O)O)CCCC2)cc1")
5.49
>>> measured_number("O=C(O)CCn1c2c(c3cc(NS(=O)(=O)c4cccs4)ccc31)CCCC2")
5.12

Kindly review the next compound as well.
response.value for O=C(O)CCn1c2c(c3cc(NCc4ccccc4)ccc31)CCCC2 (field: pKi) = 4.77

###

# measured_target: Prostaglandin D2 receptor 2 (Homo sapiens)
# assay_notes: Inhibitory concentration for PGD2-mediated receptor activation in a fluorescence assay that measures changes in intracellular calcium
# Format: functional, cell-based
readout: pIC50
Would you please state pIC50, meaning minus log10 of the concentration in mol/L, as a bare number?

Example entries and their recorded answers appear below.
>>> measured_number("CC1CCc2c(c3cc(NS(=O)(=O)c4ccc(F)cc4)ccc3n2CC(=O)O)C1 (stereo not given)")
8.01
>>> measured_number("O=C(O)Cn1c2c(c3cc(NS(=O)(=O)c4ccc(F)cc4)ccc31)CCC2")
6.89
>>> measured_number("CC(C)(C)C1CCc2c(c3cc(NS(=O)(=O)c4ccc(F)cc4)ccc3n2CC(=O)O)C1 (stereo not given)")
6.92
>>> measured_number("O=C(O)CN1c2ccc(NS(=O)(=O)c3ccc(F)cc3)cc2C2CCCCCC21 (stereo not given)")
7.66

response.value for O=C(O)Cn1c2c(c3cc(NS(=O)(=O)c4ccc(F)cc4)ccc31)CC(c1ccccc1)CC2 (stereo not given) (field: pIC50) = 7.66

###

# measured_target: Prostaglandin D2 receptor 2 (Homo sapiens, UniProt Q9Y5Y4)
# Sequence (Q9Y5Y4 whole entry): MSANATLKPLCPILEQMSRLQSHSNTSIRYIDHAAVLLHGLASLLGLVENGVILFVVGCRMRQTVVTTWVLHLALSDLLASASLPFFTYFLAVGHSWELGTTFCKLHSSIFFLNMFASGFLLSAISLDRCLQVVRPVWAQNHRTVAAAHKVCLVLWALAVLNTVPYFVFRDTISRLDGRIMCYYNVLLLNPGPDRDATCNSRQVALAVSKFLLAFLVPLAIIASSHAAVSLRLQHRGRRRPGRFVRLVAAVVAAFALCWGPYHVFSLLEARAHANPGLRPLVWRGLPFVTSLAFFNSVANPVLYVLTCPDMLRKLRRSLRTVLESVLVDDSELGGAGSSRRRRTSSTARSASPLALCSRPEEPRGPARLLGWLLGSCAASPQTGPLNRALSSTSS
# assay_notes: Inhibitory activity for binding of PGD-2 to CRTH-2 in hCRTH-2 binding assay using HEK293 cell membranes
Listed molecules paired with reported Ki
Provide the reading as a plain figure in µM.

Example entries and their recorded answers appear below.
>>> measured_number("O=C(O)CCCCn1c2c(c3cc(NS(=O)(=O)c4ccc(F)cc4)ccc31)CCCC2")
4.6
>>> measured_number("O=C(O)CCn1c2c(c3cc(NS(=O)(=O)c4ccc(O)cc4)ccc31)CCCC2")
7.4
>>> measured_number("O=C(O)c1ccc(-n2c3c(c4cc(NS(=O)(=O)c5ccc(F)cc5)ccc42)CCCC3)cc1")
6.4
>>> measured_number("O=C(O)CCn1c2c(c3cc(NS(=O)(=O)c4ccc(F)c(Cl)c4)ccc31)CCCC2")
1.7
>>> measured_number("Cc1cccc(S(=O)(=O)Nc2ccc3c(c2)c2c(n3CCC(=O)O)CCCC2)c1")
4.2

response.value for O=C(O)CCn1c2c(c3cc(NS(=O)(=O)c4cccc(F)c4)ccc31)CCCC2 (field: Ki) = 1.3

response.value for O=C(O)CCn1c2c(c3ccccc31)C[C@H](NS(=O)(=O)c1ccc(F)cc1)CC2 (field: Ki) = 0.29

response.value for O=C(O)CCn1c2c(c3cc(NS(=O)(=O)c4ccc(Cl)cc4)ccc31)CCCC2 (field: Ki) = 3

response.value for CCC(C(=O)O)n1c2c(c3cc(NS(=O)(=O)c4ccc(F)cc4)ccc31)CCCC2 (stereo unspecified) (field: Ki) = 18

response.value for O=C(O)CCn1c2c(c3cc(NS(=O)(=O)c4ccc(Oc5ccccc5)cc4)ccc31)CCCC2 (field: Ki) = 7.5

response.value for COc1ccc(S(=O)(=O)Nc2ccc3c(c2)c2c(n3CCC(=O)O)CCCC2)cc1 (field: Ki) = 2.1

response.value for O=C(O)CCn1c2c(c3cc(NS(=O)(=O)c4ccc5ccccc5c4)ccc31)CCCC2 (field: Ki) = 7.4

response.value for O=C(O)CCn1c2c(c3cc(NS(=O)(=O)c4ccc(-c5ccccc5)cc4)ccc31)CCCC2 (field: Ki) = 3.3

response.value for O=C(O)CCCn1c2c(c3cc(NS(=O)(=O)c4ccc(F)cc4)ccc31)CCCC2 (field: Ki) = 8.3

###

# measured_target: Thromboxane A2 receptor (Homo sapiens, UniProt P21731)
# assay_notes: Inhibitory activity for binding of PGD-2 in hTP binding assay using HEK293 cell membranes
readout: Ki

>>> result("O=C(O)CCn1c2c(c3cc(NS(=O)(=O)c4ccc(F)cc4)ccc31)CCCC2")
"1500 nM"
>>> result("O=C(O)CN1c2ccc(NS(=O)(=O)c3ccc(F)cc3)cc2C2CCCCCC21 (stereo not given)")
"> 20000 nM"
>>> result("O=C(O)Cn1c2c(c3cc(NS(=O)(=O)c4ccc(F)cc4)ccc31)CC(c1ccccc1)CC2 (stereo not given)")
"> 20000 nM"

response.value for CC1CCc2c(c3cc(NS(=O)(=O)c4ccc(F)cc4)ccc3n2CC(=O)O)C1 (stereo not given) (field: Ki) = > 20000 nM

response.value for O=C(O)CCn1c2c(c3ccccc31)C[C@H](NS(=O)(=O)c1ccc(F)cc1)CC2 [RAMATROBAN] (field: Ki) = 18 nM
